- Tested on: A549
- METHOD NOTES: Cytotoxicity against human A549 cells assessed as reduction in cell viability incubated for 24 hrs by MTT assay
- Type: functional, cell-based
- CONDITION SUMMARY: A549, 24 h
MEASURED QUANTITY: pIC50
Scale: pIC50 equals -log10([C]), with [C] in mol/L.

Input line: Given the entry C[C@H]1O[C@@H]2OC(=O)[C@]3(C)C[C@@H]4[C@](C)(C(=O)C=C5C(=CC(=O)OC5(C)C)[C@@]45CO5)[C@H](C1=O)[C@]23O , report its measured pIC50.
Output line: 5.17
